biological target: OTU domain-containing protein 3 (Homo sapiens) (UniProt Q5T2D3); assay: Validation of screening hits, potency titration, in vitro enzymatic, OTU domain-containing protein 3 DUB inhibitors (AID 1645868); conditions: purified OTUD3, ubiquitin-rhodamine cleavage fluorescence, 2 h
Sequence (Q5T2D3 whole entry, looked up, the tested form may be a part): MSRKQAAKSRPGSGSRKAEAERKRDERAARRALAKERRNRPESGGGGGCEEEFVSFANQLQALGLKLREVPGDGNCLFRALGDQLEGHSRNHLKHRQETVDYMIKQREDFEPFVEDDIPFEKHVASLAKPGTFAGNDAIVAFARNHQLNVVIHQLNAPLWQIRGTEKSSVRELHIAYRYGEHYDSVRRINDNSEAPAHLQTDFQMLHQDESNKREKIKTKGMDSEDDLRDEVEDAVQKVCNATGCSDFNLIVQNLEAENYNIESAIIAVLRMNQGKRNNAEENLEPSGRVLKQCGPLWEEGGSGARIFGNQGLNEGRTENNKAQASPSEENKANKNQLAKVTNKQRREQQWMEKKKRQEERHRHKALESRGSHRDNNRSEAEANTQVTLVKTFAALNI
Calls of active or inactive are those of the source.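 The calls were made as follows: active = maximal percent inhibition of the deubiquitinase OTUD3 of at least 30% across the tested doses; inactive = the rest.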
Your response should consist of one outcome taken from active, inactive

Answered cases to consult:
{"smilesText": "c1csc(CCN2CCc3nc4cccnc4cc3C2)c1", "categoryLabel": "inactive"}
{"smilesText": "O=C(NCCCN1CCc2ccccc2C1)c1cc2c(s1)CS(=O)(=O)C2", "categoryLabel": "inactive"}
{"smilesText": "CCN(CC(=O)Nc1cc(C)on1)c1cccc2ccccc12", "categoryLabel": "inactive"}
{"smilesText": "COc1cccc(N2CCN(C(=O)C3CCN(c4nc(NC(C)=O)ns4)CC3)CC2)c1", "categoryLabel": "inactive"}

Q: Dear colleague, could you share the recorded outcome for COc1cc(NC(=O)Cn2nc(-c3ccc(F)cc3)ccc2=O)ccc1-n1cnnn1 when you have a moment?
Ans: active

Q: Per the records of this test, what outcome belongs to Cc1ccc(Cn2nnc(-c3ccccc3Cl)n2)cc1 ?
Ans: inactive

###

molecular target: OTU domain-containing protein 3 (Homo sapiens) (UniProt Q5T2D3); experiment: Validation of screening hits, potency titration, in vitro enzymatic, OTU domain-containing protein 3 DUB inhibitors (AID 1645868); conditions: purified OTUD3, ubiquitin-rhodamine cleavage fluorescence, 2 h
Active and inactive are the calls of the source.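 The calls were made as follows: active = maximal percent inhibition of the deubiquitinase OTUD3 of at least 30% across the tested doses; inactive = the rest.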
Your answer must be one of the following: TRUE (active), FALSE (inactive)

{"molecule": "Cc1ccc(Nc2nc(Nc3cccc(Cl)c3)nc3nccnc23)cc1", "categoryLabel": "FALSE"}
{"molecule": "Cc1ccc(S(=O)(=O)c2cnc(SCC(=O)Nc3ccc(Cl)cc3)nc2N)cc1C", "categoryLabel": "FALSE"}
{"molecule": "Cc1cccc(NC(=O)Cn2c(N3CCOCC3)nc3cc(C)n(C)c3c2=O)c1", "categoryLabel": "TRUE"}

Here's the next entry for you.
Q: What is the recorded call for this molecule in the test? CCCc1c(C(=O)O)c(O[C@H]2O[C@H](C)[C@@H](OC)[C@H](OC)[C@@H]2OC)cc2cc3c(c(O)c12)C(=O)c1c(O)cc(O[C@@H]2O[C@@H](C)[C@H](O[C@H]4O[C@H](C)[C@@H](OC)[C@H](OC)[C@@H]4O)[C@@H](OC)[C@H]2O)cc1C3=O
Ans: FALSE

###

biological target: OTU domain-containing protein 3 (Homo sapiens) (UniProt Q5T2D3); experiment: Validation of screening hits, potency titration, in vitro enzymatic, OTU domain-containing protein 3 DUB inhibitors (AID 1645868); settings: purified OTUD3, ubiquitin-rhodamine cleavage fluorescence, 2 h
Active and inactive are the calls of the source.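 Rule for the calls: active = maximal percent inhibition of the deubiquitinase OTUD3 of at least 30% across the tested doses; inactive = the rest.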
Parameter call: string, one of TRUE = active, FALSE = inactive

{"compound": "O=C(Nc1cccc(-c2noc(C3CCC3)n2)c1)C1CC(=O)N(c2ccccc2)C1 (configuration not stated)", "categoryLabel": "TRUE"}

Q: Kindly provide the recorded test outcome for the following compound: O=C(NCc1ccc(Cl)cc1)Nc1cccc2ccccc12
Ans: FALSE

Q: Field: outcome | Entry: CC1CC(=O)Nc2ccccc2N1S(=O)(=O)c1ccc(C#N)cc1 (configuration not stated)
Ans: FALSE

Q: Please share the test call associated with CC1CCc2c(sc3ncnc(OCc4cccc([N+](=O)[O-])c4)c23)C1 (configuration not stated) .
Ans: FALSE

Q: Just curious, what result did COCCNC(=O)c1ccnn1-c1ccc2ccc(-c3cccnc3)cn12 get here?
Ans: FALSE

Q: Tell me the assay call for COc1cc(Cl)ccc1Oc1ncnc2sc(C)c(C)c12 please.
Ans: FALSE

Q: Each compound tested received a call. Report the one for Cc1c(C(=O)Nc2ccc(-c3nnc4n3CCCCC4)cc2)oc2c1ccc1ccccc12 .
Ans: FALSE

Q: // outcome(item) with item = O=C(O)CCCCCN1C(=O)CC(c2ccc(Cl)cc2)CC1=O
Ans: TRUE

Q: Given O=C(COc1cccc2c1CCN(Cc1cccnc1)C2=O)Nc1ccc2c(c1)OCCO2 , state the outcome it received in this test.
Ans: FALSE

Q: Recorded test call requested for CCS(=O)(=O)N1CCc2cc(C(=O)Nc3ccc4c(c3)OCCO4)ccc21
Ans: FALSE

Q: Called result for c1coc(CNc2nc(Nc3cccc4ccccc34)nc3ccccc23)c1
Ans: FALSE

###

molecular target: OTU domain-containing protein 3 (Homo sapiens); assay: Validation of screening hits, potency titration, in vitro enzymatic, OTU domain-containing protein 3 DUB inhibitors (AID 1645868); details: purified OTUD3, ubiquitin-rhodamine cleavage fluorescence, 2 h
Active and inactive are the calls of the source.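 The calls were made as follows: active = maximal percent inhibition of the deubiquitinase OTUD3 of at least 30% across the tested doses; inactive = the rest.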
Outcomes you can answer with include only these: 1 (yes) (active), 0 (no) (inactive)

{"compound": "COC(=O)c1cc(C)sc1NC(=O)c1cccc(OC)c1OC", "categoryLabel": "0 (no)"}

Consider the record given below.
Q: Outcome logged for Cc1cc(C)n2nc(CNc3cccc(Cl)c3)nc2n1 in this assay:
Ans: 0 (no)

###

biological target: OTU domain-containing protein 3 (Homo sapiens); experiment: Validation of screening hits, potency titration, in vitro enzymatic, OTU domain-containing protein 3 DUB inhibitors (AID 1645868); conditions: purified OTUD3, ubiquitin-rhodamine cleavage fluorescence, 2 h
The source made the active and inactive calls.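 How the source made its calls: active means maximal percent inhibition of the deubiquitinase OTUD3 of at least 30% across the tested doses; inactive means the rest.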
resultType: IC50

{"compound": "O=C(NCc1ccccc1Cl)c1ccc(-c2nnc(-c3ccccc3)o2)cc1", "targetOrSystem": "OTU domain-containing protein 3 (Homo sapiens)", "resultType": "IC50", "experimentalResult": "5.57 µM"}
{"compound": "CCOc1ccccc1C(=O)Nc1ccc2c(c1)Sc1ncccc1C(=O)N2C", "targetOrSystem": "OTU domain-containing protein 3 (Homo sapiens)", "resultType": "IC50", "experimentalResult": "> 50 µM (inactive)"}
{"compound": "CC(=O)c1ccc(NC(=O)c2ccc(N3CCCCS3(=O)=O)cc2Cl)cc1", "targetOrSystem": "OTU domain-containing protein 3 (Homo sapiens)", "resultType": "IC50", "experimentalResult": "37 µM"}
{"compound": "c1ccc(-n2nnc(-c3noc(-c4cccnc4)n3)c2-c2ccncc2)cc1", "targetOrSystem": "OTU domain-containing protein 3 (Homo sapiens)", "resultType": "IC50", "experimentalResult": "24 µM"}
{"compound": "O=C(NC1CC1)c1ccnn1-c1ccc2ccc(-c3ccncc3)cn12", "targetOrSystem": "OTU domain-containing protein 3 (Homo sapiens)", "resultType": "IC50", "experimentalResult": "> 50 µM (inactive)"}

Per the record, Cc1ccc(C(C)C)cc1OCCOCCN1CCNCC1 has IC50 of > 50 µM (inactive)

Noted for CN(CCc1ccccc1)c1nccc(N2CCN(C(=O)c3csc(-c4cccnc4)n3)CC2)n1 : its IC50 reads > 50 µM (inactive)

# compound CN(C)c1ccc(C2CC(c3c(O)n(C)c(=O)[nH]c3=O)=Nc3ccccc3S2)cc1 (stereo not given) ; its IC50 = > 50 µM (inactive)

Value of IC50 reported for the compound CC(=O)N1CCOc2cc(S(=O)(=O)N3CCCC3c3cc(C)no3)ccc21 (stereo not given) is > 50 µM (inactive)

compound O=C(Nc1ccc2c(c1)OCO2)C1CCN(Cc2nc3ccccc3s2)CC1 , IC50 observed: > 50 µM (inactive)

get_value(item= Cc1ccc2[nH]c3c(=O)n(CC4CCCO4)cnc3c2c1 (stereo not given) , readout=IC50) returns 44.9 µM

Entry COc1ccccc1CNC(=O)CCCn1c(=O)c2ccccc2n(CC(=O)N2CCN(c3ccccc3)CC2)c1=O — recorded IC50 = 25.5 µM

Data point: Cc1ccc(NCc2cc3c(C(C)(C)C)nn(-c4ccc(Cl)cc4)c3[nH]c2=O)cc1 ; IC50 = 33.5 µM

The compound listed as O=C(CSc1ncnc2c1sc1cccc(F)c12)N1CCCCCC1 has a reported IC50 of > 50 µM (inactive)

###

biological target: OTU domain-containing protein 3 (Homo sapiens); test: Validation of screening hits, potency titration, in vitro enzymatic, OTU domain-containing protein 3 DUB inhibitors (AID 1645868); details: purified OTUD3, ubiquitin-rhodamine cleavage fluorescence, 2 h
The source made the active and inactive calls.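 Rule for the calls: active = maximal percent inhibition of the deubiquitinase OTUD3 of at least 30% across the tested doses; inactive = the rest.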
Bench note: report the call from T = active, F = inactive

Example results:
{"compound": "CCOc1ccc(NC(=O)Cn2cc(C(=O)c3ccc(Cl)cc3)c(=O)c3cc(OC)ccc32)cc1", "categoryLabel": "T"}
{"compound": "O=C(NC1CCCCC1)c1cc2c(cn1)[nH]c1ccccc12", "categoryLabel": "F"}
{"compound": "CN1CC2CN(C(=O)c3ccc(F)cc3)CCN2Cc2ccccc21 (stereo not given)", "categoryLabel": "F"}
{"compound": "Cc1nn(-c2ccc(F)cc2)cc1-c1noc(C(=O)NCc2ccccn2)n1", "categoryLabel": "T"}
{"compound": "O=c1[nH]c(-c2ccccn2)nc2c1CCN(Cc1cnn(-c3ccccc3)c1)C2", "categoryLabel": "F"}

Q: Short answer needed: outcome of this test for COc1ccc(S(=O)(=O)N2CCN3Cc4ccccc4N(C)CC3C2)cc1 (stereo not given) ?
Ans: F

Q: Could you check what this test reported for COc1ccc(NS(=O)(=O)c2cc(NC(=O)CCc3nc4ccccc4s3)ccc2C)cc1 ?
Ans: T

Q: For this compound, state the assay outcome: COc1ccccc1OCC(=O)Nc1ccc2c(c1)CCC(=O)N2Cc1ccccc1
Ans: F

Q: # lookup: test call for Cc1ccc(-c2c(C(=O)Nc3ccc(S(N)(=O)=O)cc3)oc(=O)c3ccccc23)cc1
Ans: T

Q: Record request — test call for CC(C(=O)Nc1ccccc1)n1cnc2nc(N3CCCCC3)ncc2c1=O (stereo not given)
Ans: F
